target: UniProt:Q92847; test: FLIPR Ca2+ assay, GHSR expressed in HEK293T-Gα15-GCaMP6s cells; assay type: cell-based; conditions: normalized to 1 μM ghrelin
Sequence (Q92847 whole entry): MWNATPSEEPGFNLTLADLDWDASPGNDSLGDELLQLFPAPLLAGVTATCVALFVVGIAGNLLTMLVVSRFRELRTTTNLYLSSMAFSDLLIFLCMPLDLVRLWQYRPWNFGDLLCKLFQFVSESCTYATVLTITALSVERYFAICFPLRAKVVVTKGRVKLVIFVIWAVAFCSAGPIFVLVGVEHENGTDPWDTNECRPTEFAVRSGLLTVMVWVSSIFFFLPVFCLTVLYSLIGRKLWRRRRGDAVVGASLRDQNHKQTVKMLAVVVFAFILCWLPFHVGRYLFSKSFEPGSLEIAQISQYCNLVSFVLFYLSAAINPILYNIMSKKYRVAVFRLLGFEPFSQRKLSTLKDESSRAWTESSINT
Observed property: Maximal efficacy at GHSR

compound="C[C@H](CCC(=O)O)[C@H]1CC[C@H]2[C@@H]3[C@@H](O)C[C@@H]4C[C@H](O)CC[C@]4(C)[C@H]3CC[C@]12C [UDCA, ursodeoxycholic acid]" assay_target=UniProt:Q92847 value_measured="comparable to ghrelin"
compound="C[C@H](CCC(=O)O)[C@H]1CC[C@H]2[C@@H]3[C@H](O)C[C@@H]4C[C@H](O)CC[C@]4(C)[C@H]3CC[C@]12C [CDCA, chenodeoxycholic acid]" assay_target=UniProt:Q92847 value_measured="comparable to ghrelin"
compound="C[C@H](CCC(=O)O)[C@H]1CC[C@H]2[C@@H]3CC[C@@H]4C[C@H](O)CC[C@]4(C)[C@H]3C[C@H](O)[C@]12C [DCA, deoxycholic acid]" assay_target=UniProt:Q92847 value_measured="comparable to ghrelin"
